This collection of values is drawn from ChEMBL document CHEMBL5634161.

- PROCEDURE TEXT: Clearance in ICR mouse at 1 mg/kg, iv measured after 24 hrs by LC-MS/MS analysis
- Type: ADME, organism-based
- EXPERIMENTAL SETUP: in vivo
ENDPOINT LABEL: clearance (mL/min/kg)

structure_notation=COc1nc(-c2ccc(NC(=O)Nc3ccc(C(=O)NCCCCCC(=O)Nc4ccccc4N)cc3)cc2)nc(N2CCOCC2)n1 endpoint_label=clearance result_value=6.02

====

- PROCEDURE TEXT: Stability in mouse liver microsomes assessed as compound remaining at […] preincubated for 5 mins followed by NADPH addition and measured after 45 mins by LC-MS/MS analysis
- Assay type: ADME, Microsome
- EXPERIMENTAL SETUP: time 50 min, read-out: Stability
ENDPOINT LABEL: remaining at 0.75 h (%)

structure_notation=COc1nc(-c2ccc(NC(=O)Nc3ccc(C(=O)NCCCCCC(=O)Nc4ccccc4N)cc3)cc2)nc(N2CCOCC2)n1 unit_spec=% result_value=32.8
